// reported Kd for each item listed
Target: T1, BMP-7 (UniProt P18075 293-431)
T1 sequence (looked up): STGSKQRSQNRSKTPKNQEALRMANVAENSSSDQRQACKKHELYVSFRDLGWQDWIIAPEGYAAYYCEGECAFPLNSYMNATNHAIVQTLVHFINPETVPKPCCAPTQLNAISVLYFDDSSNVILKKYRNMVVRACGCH
Experiment: SPR
Give a bare numeral; the unit µM is implied.

A selection of reference data follows.
>  <Binder>
BMPR-II ECD Y40G (domain or fragment, human, UniProt Q13873 26-150, looked up) ASQNQERLCAFKDPGQQDLGIGESRISHENGTILCSKGSTCYGLWEKSKGDINLVKQGCWSHIGDPQECHYEECVVTTTPPSIQNGTYRFCCCSTDLCNVNFTENFPPPDTTPLSPPHSFNRDET

>  <Kd (µM)>
138

$$$$
>  <Binder>
BMPR-II ECD Y40R (domain or fragment, human, UniProt Q13873 26-150, looked up) ASQNQERLCAFKDPRQQDLGIGESRISHENGTILCSKGSTCYGLWEKSKGDINLVKQGCWSHIGDPQECHYEECVVTTTPPSIQNGTYRFCCCSTDLCNVNFTENFPPPDTTPLSPPHSFNRDET

>  <Kd (µM)>
117

$$$$
>  <Binder>
human recombinant BMPR-II ECD, wild type (domain or fragment, UniProt Q13873 26-150, looked up) ASQNQERLCAFKDPYQQDLGIGESRISHENGTILCSKGSTCYGLWEKSKGDINLVKQGCWSHIGDPQECHYEECVVTTTPPSIQNGTYRFCCCSTDLCNVNFTENFPPPDTTPLSPPHSFNRDET

>  <Kd (µM)>
135

$$$$
>  <Binder>
Chimera BAB: BMPR-II ECD with the ActR-IIB A-loop (domain or fragment) ASQNQERLCAFKDPYQQDLGIGESRISHENGTILCSKGSTCYGLWEKSKGDINLVKQGCWDDFNCYDRQCVVTTTPPSIQNGTYRFCCCSTDLCNVNFTENFPPPDTTPLSPPHSFNRDET

>  <Kd (µM)>
59

$$$$

// Input: BMPR-II ECD G47N (domain or fragment, human, UniProt Q13873 26-150, looked up) ASQNQERLCAFKDPYQQDLGINESRISHENGTILCSKGSTCYGLWEKSKGDINLVKQGCWSHIGDPQECHYEECVVTTTPPSIQNGTYRFCCCSTDLCNVNFTENFPPPDTTPLSPPHSFNRDET . Output its Kd only.
92
